target.under.test: T1, recombinant human VEGF (R&D Systems, 293-VE/CF) (Homo sapiens, UniProt P15692-4)
T1 construct: recombinant human VEGF, R&D Systems 293-VE/CF; also called VEGF antigen; source: bought: R&D Systems (293-VE/CF)
protocol.details: SPR; Biacore, 25°C; VEGF amine-coupled to a CM5 chip (about 300 RU); monomeric scFv (after Superdex 75) in PBS at 10, 20, 40, 80, 160 nM, 30 µl/min, 5 min association, 10 min dissociation; global fit to 1:1 Langmuir model
experimental.parameters: both partners purified
quantity.measured: Kd (nM)
Give bare numbers, in nM.

- X63 scFv (VH-CDR3 variant H97Y, S100aT) (scFv, V domains shown, as the VH of m4 (WT framework) with the stated VH-CDR3 changes; scFv linker; Selected as ccFv on phage, converted to scFv; source: Pichia pastoris X33 (pPIC6 alpha), culture supernatant, purified (Ni-NTA)) VH: EVQLVESGGGLVQPGGSLRLSCAASGYTFTNYGMNWVRQAPGKGLEWVGWINTYTGEPTYAADFKRRFTFSLDTSKSTAYLQMNSLRAEDTAVYYCAKYPYYYGTSHWYFDVWGQGTLVTVSS VL: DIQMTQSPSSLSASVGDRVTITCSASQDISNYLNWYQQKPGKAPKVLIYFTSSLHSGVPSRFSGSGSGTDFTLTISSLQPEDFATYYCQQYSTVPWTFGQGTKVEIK: 2.2

Let us move to another entry and its Kd.
## Task I'd like to know its Kd. The binder in question is X76 scFv (humanization lead) (scFv, V domains shown, as the VH of m4 (WT) with the stated framework changes (Kabat numbering); scFv linker; VL paired with the VH humanization library; likely as the VL of m4; Selected as ccFv on phage, converted to scFv; source: Pichia pastoris X33 (pPIC6 alpha), culture supernatant, purified (Ni-NTA)) VH: EVQLVQSGGGVVQPGGSLRLSCAASGYTFTNYGMNWIRQAPGKGLEWVGWINTYTGEPTYAADFKRRVTFSLDTSKSTAYLQLNSLRAEDTAVYYCAKYPHYYGSSHWYFDVWGQGTLVTVSS VL: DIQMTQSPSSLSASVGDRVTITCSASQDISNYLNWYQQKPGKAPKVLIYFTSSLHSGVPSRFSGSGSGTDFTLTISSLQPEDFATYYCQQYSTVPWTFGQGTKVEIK
## Result 3.1

The measured values listed here are drawn from paper PMC3084267.
